The measured values listed here are drawn from paper PMC10364317.

# Target entity: TyrRA153 (Serratia plymuthica)
# Experimental details: Isothermal titration calorimetry of TyrRA153 with ligands
# Type: binding, Serratia plymuthica A153
# Details: ITC, ligand alone (absence of ATP for amino acids)
Quantity kind: ΔH (kcal/mol)
One number for each entry, in kcal/mol.

Which ΔH value is on record for `N[C@@H](Cc1c[nH]c2ccccc12)C(=O)O` ?
-1.6

For the next question, use this compound.
Can you look up the measured ΔH of `Nc1ncnc2c1ncn2[C@@H]1O[C@H](COP(=O)(O)OP(=O)(O)OP(=O)(O)O)[C@@H](O)[C@H]1O` for me?
-22.9

* * *

# Target entity: HpaAA153 (Serratia plymuthica, UniProt A0A7T2WCJ6)
# Sequence (A0A7T2WCJ6 entry or part of it): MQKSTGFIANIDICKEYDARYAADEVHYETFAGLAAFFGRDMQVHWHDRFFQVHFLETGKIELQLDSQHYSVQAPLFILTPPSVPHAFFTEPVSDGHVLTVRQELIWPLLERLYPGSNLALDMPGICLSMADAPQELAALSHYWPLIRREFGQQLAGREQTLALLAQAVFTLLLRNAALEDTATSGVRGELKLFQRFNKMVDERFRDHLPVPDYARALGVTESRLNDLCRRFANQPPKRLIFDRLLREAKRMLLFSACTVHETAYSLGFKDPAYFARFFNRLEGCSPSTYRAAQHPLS
# Experimental details: Isothermal titration calorimetry of HpaAA153 with ligands
# Format: binding, Serratia plymuthica A153
# Method: Measurements were made using a VP‐ITC microcalorimeter (MicroCal, Inc., Northampton, MA) at 10–25°C. HpaAA153 and HpaRA153 were dialyzed into 50 mM Tris, 300 mM NaCl, 10% (v/v) glycerol, 2 mM β‐mercaptoethanol, pH 8.0. […] In all cases, the mean enthalpies measured from the injection of the ligand in the buffer were subtracted from raw titration data before data analysis with the ORIGIN software (MicroCal).
Quantity kind: binding to HpaAA153 as determined by isothermal titration calorimetry

Completed entries (count: 4):
Entry under review: `O=C(O)C(=O)Cc1c[nH]c2ccccc12` . Reported binding to HpaAA153 as determined by isothermal titration calorimetry?
did not bind

Tell me the measured binding to HpaAA153 as determined by isothermal titration calorimetry of `O=C(O)c1ccccc1O` , please.
did not bind

So what's the measured binding to HpaAA153 as determined by isothermal titration calorimetry for this one? O=C(O)Cc1ccc(O)c(O)c1 [3,4HPA, 3,4‐dihydroxyphenylacetic acid]
did not bind

Form field: reported binding to HpaAA153 as determined by isothermal titration calorimetry of `Cc1cccc(C(=O)O)c1`
did not bind

Now take the following compound into account.
Entry `O=C(O)c1ccccc1` has what binding to HpaAA153 as determined by isothermal titration calorimetry?
did not bind

* * *

# Target entity: TyrRA153 (Serratia plymuthica, UniProt A0A318P557)
# Sequence (A0A318P557 entry or part of it): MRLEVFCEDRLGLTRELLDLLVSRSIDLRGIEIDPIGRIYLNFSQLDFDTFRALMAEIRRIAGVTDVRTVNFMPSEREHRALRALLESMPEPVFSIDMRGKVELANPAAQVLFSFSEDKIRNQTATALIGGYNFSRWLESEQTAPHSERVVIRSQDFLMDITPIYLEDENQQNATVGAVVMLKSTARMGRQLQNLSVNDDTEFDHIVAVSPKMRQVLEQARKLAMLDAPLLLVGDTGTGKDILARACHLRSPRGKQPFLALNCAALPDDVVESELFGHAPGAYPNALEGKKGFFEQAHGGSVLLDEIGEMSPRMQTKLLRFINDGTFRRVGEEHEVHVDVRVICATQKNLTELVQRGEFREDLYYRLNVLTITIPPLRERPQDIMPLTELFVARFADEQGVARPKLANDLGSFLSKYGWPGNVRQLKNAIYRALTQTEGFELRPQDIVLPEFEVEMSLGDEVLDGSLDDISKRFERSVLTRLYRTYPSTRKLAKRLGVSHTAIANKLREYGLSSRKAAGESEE
# Experimental details: Isothermal titration calorimetry of TyrRA153 with ligands
# Type: binding, Serratia plymuthica A153
# Details: ITC, in the presence of ATP; read-out: K D1
Quantity kind: pKd
Answers are plain numbers, as −log10 of the molar value.

Request the reported pKd associated with `N[C@@H](Cc1c[nH]c2ccccc12)C(=O)O`
2.79
